For each record, write down the corresponding growth.
- Test system: SR leukemia
- PROTOCOL SUMMARY: NCI-60 one-dose screen, 48 h (100 = growth as untreated, 0 = no growth, -100 = all killed)
- SETTINGS: 10 µM unless noted
The panel holds about 83,000 compounds, 20% with a hit somewhere; the sample as a whole holds those more often.
Numeric only. Scale: %

Task: Please give the measured growth for this molecule: `Clc1ccc(C2=NN(c3ccccc3)[C@H](c3cn(-c4ccccc4)nc3-c3ccccc3)C2)cc1`
Result: 118

Task: growth for `O=C1C(OCCOc2ccccc2)=C(OCCOc2ccccc2)C(=O)c2ccccc21` ?
Result: 60.1

Task: # lookup: growth of COC1(OC)C2(Cl)C=C(c3ccccc3)C1(Cl)C(Cl)=C2Cl (centres undefined)
Result: 83.9

Task: Entry CC(=O)N(CC(O)CO)c1c(I)c(C(=O)NCCO)c(I)c(C(=O)NCC(O)CO)c1I (centres undefined) has what growth?
Result: 77.2

Task: Which growth value belongs to `CCCCC(=O)N/N=C/c1cc(I)cc(I)c1O` ?
Result: 16.8

Task: Please give the measured growth for this molecule: `Cc1c(NCC(=O)Nc2nc3ccccc3[nH]2)c(=O)n(-c2ccccc2)n1C`
Result: 92.4

Task: Need growth of `Cc1ccccc1-c1cc(-c2ccc(Br)s2)[nH]c(=O)c1C#N` , thanks.
Result: 100

Task: Which growth is listed for `COc1cccc(Nc2nc(NCCO)c3ccccc3n2)c1` ?
Result: 47.1

Task: Quick check: growth of `COC(=O)c1c2c(c(C)[n+]([O-])c1C)C(=O)C=C(NCc1ccc(Cl)cc1)C2=O` ?
Result: 3.91

* * *

- System: SF-295 CNS
- PROTOCOL SUMMARY: NCI-60 one-dose screen, 48 h (100 = growth as untreated, 0 = no growth, -100 = all killed)
- SETTINGS: 10 µM unless noted
About 83,000 compounds went through this panel and 20% of them were active in at least one assay; those are over-represented in the sample as a whole. Activity calls are given as the source filed them. How the source made its calls: active means growth percent below 10; inactive means the rest.
OBSERVABLE: growth

Task: Consider the molecule shown here: `Clc1ccc(Nc2ccnc(N3CCN(c4ccnc5cc(Cl)ccc45)CC3)n2)cc1` What is its recorded growth?
Result: 18.8% (inactive)

Task: Any idea what its growth is? The molecule is `COc1cc(Cn2cc(F)c(=O)[nH]c2=O)cc(OC)c1`
Result: 101% [50 µM] (inactive)

Task: Value lookup for growth; key = `O=c1ccc2ccccc2o1`
Result: 97.7% (inactive)

Task: What value of growth has been recorded for this entry: `COc1ccc(OC)c(/C=C2\Oc3cc(O)ccc3C2=O)c1`
Result: 98.6% (inactive)

Task: Would you kindly share the measured growth for COc1ccc(C2CC(c3cc(OC)c(OC)c(OC)c3)=NN2c2ccc(S(N)(=O)=O)cc2)cc1 (configuration not stated) ?
Result: 55.2% (inactive)

Task: Record request: growth value, item `O=C1c2cc(S(=O)(=O)O)ccc2C(=O)c2c1cccc2[N+](=O)[O-]`
Result: 100% (inactive)

Task: Please look up its growth: `FC(F)(F)c1cc(CNc2nc(Cl)ncc2Br)cc(C(F)(F)F)c1`
Result: 88.4% (inactive)

* * *

Provide the reported growth of each item.
- Test system: HOP-62 NSCLC
- PROTOCOL SUMMARY: NCI-60 one-dose screen, 48 h (100 = growth as untreated, 0 = no growth, -100 = all killed)
- SETTINGS: 10 µM unless noted
This is part of a sample that, as a whole, favours compounds with a hit. Of some 83,000 tested, about 20% had one in any assay.
# unit: % | format: bare number

Task: Write down the reported growth of `COc1cc(C(=O)/C=C/c2c(-c3cccs3)nc3sccn23)cc(OC)c1OC` , test system: HOP-62 NSCLC.
Result: 0.498

Task: What is its growth for HOP-62 NSCLC? Entry: `Cc1cccc2c(=O)c3c(sc12)c(NCCNCCO)nc1ccccc13`
Result: 22.6

Task: # query: growth | item `COc1ccc(OC)c(/C=C2\Oc3cc(O)ccc3C2=O)c1` | system: HOP-62 NSCLC
Result: 101

Task: Lab request: please report growth under test system HOP-62 NSCLC for `CC(=O)OC[C@]1(C)C=C2C(=O)[C@](C)(O)C3(CC3)C(C)=C2[C@H]1OC(C)=O`
Result: 53.7
